Hello, the source for this data is the supplement of paper PMC10883282, in case you need it.

# System: MES-SA
# EXPERIMENT_SUMMARY: standardised AUC of viability dose-response curve (72 h) (fraction (0-1)); higher = less growth inhibition (more resistant)
Each entry below carries its recorded standardised AUC.
MEASURED_QUANTITY: standardised AUC

[[record]]
chem_smiles = "CC1(COc2ccc3c(c2)ncn3-c2ccc3cccc(N4CCC(N)CC4)c3n2)COC1"
value_reported = 0.903

[[record]]
chem_smiles = "CC#CC(=O)N1CCC[C@H]1c1nc(-c2ccc(C(=O)Nc3ccccn3)cc2)c2c(N)nccn12"
value_reported = 0.996

[[record]]
chem_smiles = "CC(C)(C)c1nc(-c2cccc(NS(=O)(=O)c3c(F)cccc3F)c2F)c(-c2ccnc(N)n2)s1"
value_reported = 0.866

[[record]]
chem_smiles = "Cc1cc2cc(Oc3ccnc(Nc4cccc(CS(=O)(=O)NCCN(C)C)c4)n3)ccc2[nH]1"
value_reported = 0.95

[[record]]
chem_smiles = "Cc1ccc(Nc2nccc(N(C)c3ccc4c(C)n(C)nc4c3)n2)cc1S(N)(=O)=O"
value_reported = 0.964

[[record]]
chem_smiles = "COc1cc(Nc2ncc(F)c(Nc3ccc4c(n3)N(COP(=O)(O)O)C(=O)C(C)(C)O4)n2)cc(OC)c1OC"
value_reported = 0.885

[[record]]
chem_smiles = "COc1cc(OC)c(/C=C/S(=O)(=O)Cc2ccc(OC)c(NCC(=O)O)c2)c(OC)c1"
value_reported = 0.681

[[record]]
chem_smiles = "O=c1sn(-c2cccc3ccccc23)c(=O)n1Cc1ccccc1"
value_reported = 0.971

